Data origin, for the record: ChEMBL document CHEMBL1137758

- system tested: Estrogen receptor (Homo sapiens) (UniProt P03372)
- experimental protocol: Displacement of fluorescein-labeled estradiol from human recombinant ERalpha at 5 uM by fluorescence polarization assay
value type: Activity (%)

* CCCCCC/C=C(\C)[C@@H](NC(=O)c1ccc(C(F)(F)F)cc1)c1ccc(-c2ccccc2)cc1 | 1
* CCC/C=C(\CCC)[C@@H](NC(=O)c1cccs1)c1ccc(C(=O)OC)cc1 | 86
* CCCC[C@@H]1C[C@H]1[C@@H](NC(=O)c1ccc(-c2ccccc2)cc1)c1ccc(-c2ccccc2)cc1 | -6
* CCC/C=C(\CCC)[C@@H](NS(=O)(=O)c1cccs1)c1ccc(C(=O)OC)cc1 | 92
* CCCC[C@@H]1C[C@H]1[C@@H](NC(=O)C(C)(C)C)c1ccc(C(F)(F)F)cc1 | 56

(P) CCCC[C@@H]1C[C@H]1[C@@H](NC(=O)Cc1ccccc1)c1ccc(-c2ccccc2)cc1
(Q) CCC/C=C(\CCC)[C@@H](NP(=O)(c1ccccc1)c1ccccc1)c1ccc(C(F)(F)F)cc1
(R) CCCC[C@@H]1C[C@H]1[C@@H](NC(=O)c1cccnc1)c1ccc(-c2ccccc2)cc1
Exercise: Sequence the entries by Activity, beginning with the highest number. Reply with the item labels sorted in the order that was asked for.
Key: Q, R, P
(Q: 79%, R: 53%, P: 28%)

* * *

- system tested: Estrogen receptor (Homo sapiens)
- experimental protocol: Displacement of fluorescein-labeled estradiol from human recombinant ERalpha at 5 uM by fluorescence polarization assay
value type: Activity (%)

- CCC/C=C(\CCC)[C@@H](NS(=O)(=O)c1ccc(C(F)(F)F)cc1)c1ccc(-c2ccccc2)cc1: 46

(I) CCC/C=C(\CCC)[C@@H](NC(=O)C(C)(C)C)c1ccc(C(=O)OC)cc1
(II) C=C(CCCC)[C@@H](NC(=O)c1ccc(C(F)(F)F)cc1)c1ccccc1
(III) CCC/C=C(\CCC)[C@@H](NP(=O)(c1ccccc1)c1ccccc1)c1ccc(-c2ccccc2)cc1
Exercise: Sequence the entries by Activity, beginning with the highest number. Reply with the item labels sorted in the order that was asked for.
Key: I, II, III
(I: 63%, II: 27%, III: -77%)

(I) C=C(CCCC)[C@@H](NC(=O)c1cccs1)c1ccccc1
(II) CCCC[C@@H]1C[C@H]1C(NC(=O)c1cccs1)c1ccc(C(F)(F)F)cc1 (single isomer, unassigned)
Exercise: Which has the higher Activity, I or II ? State your choice using its label.
Key: II
(II: 79%, I: 54%)

(1) CCC/C=C(\CCC)[C@@H](NS(=O)(=O)c1ccc(-c2ccccc2)cc1)c1ccc(C(=O)OC)cc1
(2) CCCC[C@@H]1C[C@H]1C(NC(=O)c1ccco1)c1ccc(C(=O)OC)cc1 (single isomer, unassigned)
Exercise: Which has the higher Activity, 1 or 2 ? State your choice using its label.
Key: 2
(2: 89%, 1: 54%)

* * *

- system tested: Estrogen receptor (Homo sapiens) (UniProt P03372)
- experimental protocol: Displacement of fluorescein-labeled estradiol from human recombinant ERalpha at 0.2 uM by fluorescence polarization assay
value type: Activity (%)

Reference set (2 entries):
• CCC[C@@H]1C[C@@]1(CCC)[C@@H](NS(=O)(=O)c1cccc2cccnc12)c1ccc(-c2ccccc2)cc1 = 58
• CCC/C=C(\CCC)[C@@H](NC(=O)c1ccco1)c1ccc(C(=O)OC)cc1 = 36

(1) CCC/C=C(\CCC)[C@@H](NC(=O)c1cccs1)c1ccc(C(=O)OC)cc1
(2) CCC/C=C(\CCC)[C@@H](NC(=O)c1ccc(-c2ccccc2)cc1)c1ccc(C(=O)OC)cc1
(3) CCC/C=C(\CCC)[C@@H](NS(=O)(=O)c1ccccc1)c1ccc(C(F)(F)F)cc1
Exercise: // ascending sort on recorded Activity Reply with the item labels sorted in the order that was asked for.
Key: 2, 1, 3
(2: 27%, 1: 48%, 3: 70%)

* * *

- system tested: Estrogen receptor (Homo sapiens)
- experimental protocol: Displacement of fluorescein-labeled estradiol from human recombinant ERalpha by fluorescence polarization assay
- test conditions: read-out: IC50
value type: IC50 (µM)
Reply with just the number (in µM).

Record O/N=C/c1ccc(-c2ccc(O)cc2)cc1F . Reported IC50: 0.795

* * *

- system tested: Estrogen receptor beta (Homo sapiens, UniProt Q92731)
- Sequence (Q92731 whole entry): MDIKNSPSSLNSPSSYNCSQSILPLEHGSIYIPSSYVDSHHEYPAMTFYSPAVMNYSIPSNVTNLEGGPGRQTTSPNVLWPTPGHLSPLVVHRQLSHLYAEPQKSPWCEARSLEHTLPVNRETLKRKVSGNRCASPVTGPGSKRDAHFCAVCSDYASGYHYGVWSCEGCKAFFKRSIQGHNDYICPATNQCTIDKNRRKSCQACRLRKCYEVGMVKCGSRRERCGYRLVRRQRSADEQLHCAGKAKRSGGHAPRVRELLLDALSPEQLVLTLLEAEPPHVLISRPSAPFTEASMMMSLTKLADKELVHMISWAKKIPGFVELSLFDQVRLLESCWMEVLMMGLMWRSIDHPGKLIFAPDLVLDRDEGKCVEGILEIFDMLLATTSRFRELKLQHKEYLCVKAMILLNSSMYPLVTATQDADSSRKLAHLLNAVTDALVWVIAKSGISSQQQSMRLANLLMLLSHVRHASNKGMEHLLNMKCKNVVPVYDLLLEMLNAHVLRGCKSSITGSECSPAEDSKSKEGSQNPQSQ
- experimental protocol: Displacement of fluorescein-labeled estradiol from human recombinant ERbeta at 5 uM by fluorescence polarization assay
value type: Activity (%)

Reference set (2 entries):
• CCCC[C@@H]1C[C@H]1[C@@H](NC(=O)c1cccs1)c1ccc(-c2ccccc2)cc1 = 5
• CCCC[C@@H]1C[C@H]1[C@@H](NC(=O)c1ccc(C(F)(F)F)cc1)c1ccc(C(=O)OC)cc1 = 15

(A) CCC/C=C(\CCC)[C@@H](NS(C)(=O)=O)c1ccccc1
(B) C=C(CCCC)[C@@H](NC(=O)c1ccco1)c1ccccc1
Exercise: Which has the higher Activity, A or B ? State your choice using its label.
Key: A
(A: 17%, B: 6%)

* * *

- system tested: Estrogen receptor (Homo sapiens) (UniProt P03372)
- Sequence (whole entry): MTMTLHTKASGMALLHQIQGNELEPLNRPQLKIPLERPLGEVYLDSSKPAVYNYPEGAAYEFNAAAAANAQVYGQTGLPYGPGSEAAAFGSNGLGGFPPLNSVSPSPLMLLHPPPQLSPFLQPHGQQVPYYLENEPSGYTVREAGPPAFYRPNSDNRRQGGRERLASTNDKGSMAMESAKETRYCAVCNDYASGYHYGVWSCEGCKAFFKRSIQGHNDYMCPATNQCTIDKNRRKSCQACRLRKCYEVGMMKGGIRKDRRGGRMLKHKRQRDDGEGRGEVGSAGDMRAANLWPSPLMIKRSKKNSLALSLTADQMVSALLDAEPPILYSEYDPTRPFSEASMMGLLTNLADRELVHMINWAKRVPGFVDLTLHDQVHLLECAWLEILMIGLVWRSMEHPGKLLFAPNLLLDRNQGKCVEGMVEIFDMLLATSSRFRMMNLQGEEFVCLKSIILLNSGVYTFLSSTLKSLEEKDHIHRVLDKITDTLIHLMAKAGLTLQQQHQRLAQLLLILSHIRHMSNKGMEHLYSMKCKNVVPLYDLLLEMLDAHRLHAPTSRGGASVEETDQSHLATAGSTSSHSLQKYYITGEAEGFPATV
- experimental protocol: Displacement of fluorescein-labeled estradiol from human recombinant ERalpha at 5 uM by fluorescence polarization assay
value type: Activity (%)

Reference set (6 entries):
* CCCC[C@@H]1C[C@H]1[C@@H](NC(=O)c1ccco1)c1ccccc1 | 91
* CCC[C@@H]1C[C@@]1(CCC)[C@@H](NP(=O)(c1ccccc1)c1ccccc1)c1ccc(Cl)cc1 | -44
* CCC/C=C(\CCC)[C@@H](NS(=O)(=O)c1cccc2cccnc12)c1ccc(-c2ccccc2)cc1 | 67
* CCC/C=C(\CCC)[C@@H](NS(=O)(=O)c1ccc(C(F)(F)F)cc1)c1ccccc1 | 90
* CCC/C=C(\CCC)[C@@H](NC(=O)c1ccc(C(F)(F)F)cc1)c1ccccc1 | 68
* C=C(CCCC)[C@@H](NC(=O)c1ccco1)c1ccccc1 | 41

(1) CCCC[C@@H]1C[C@H]1[C@@H](NS(=O)(=O)c1cccc2cccnc12)c1ccc(-c2ccccc2)cc1
(2) CCC/C=C(\CCC)[C@@H](NC(=O)c1ccc(C(=O)OC)cc1)c1ccc(C(=O)OC)cc1
(3) CCC/C=C(\CCC)[C@@H](NC(=O)c1ccc(C(F)(F)F)cc1)c1ccc(C(F)(F)F)cc1
Exercise: Sequence the entries by Activity, beginning with the highest number. Reply with the item labels sorted in the order that was asked for.
Key: 1, 3, 2
(1: 91%, 3: 61%, 2: 38%)

* * *

- system tested: Estrogen receptor beta (Homo sapiens, UniProt Q92731)
- experimental protocol: Displacement of fluorescein-labeled estradiol from human recombinant ERbeta at 0.2 uM by fluorescence polarization assay
value type: Activity (%)

Reference set (3 entries):
• CCC/C=C(\CCC)[C@@H](NC(=O)c1ccc(C(F)(F)F)cc1)c1ccccc1 = 10
• CCC/C=C(\CCC)[C@@H](NP(=O)(c1ccccc1)c1ccccc1)c1ccccc1 = 6
• CCCC[C@@H]1C[C@H]1[C@@H](NC(=O)c1ccc(C(F)(F)F)cc1)c1ccc(C(=O)OC)cc1 = -2

(P) CCC/C=C(\CCC)[C@@H](NP(=O)(c1ccccc1)c1ccccc1)c1ccc(C(F)(F)F)cc1
(Q) CCC/C=C(\CCC)[C@@H](NS(=O)(=O)c1cccs1)c1ccc(C(=O)OC)cc1
(R) CCC/C=C(\CCC)[C@@H](NP(=O)(c1ccccc1)c1ccccc1)c1ccc(-c2ccccc2)cc1
(S) CCC/C=C(\CCC)[C@@H](NC(=O)c1ccco1)c1ccc(C(=O)OC)cc1
Exercise: // ascending sort on recorded Activity Reply with the item labels sorted in the order that was asked for.
Key: S, Q, P, R
(S: -4%, Q: 5%, P: 8%, R: 19%)
